Where do the numbers come from? From ChEMBL document CHEMBL4004878.

# Test system: Streptococcus pyogenes
# measurement.description: Bactericidal activity against Streptococcus pyogenes 01-968 expressing inducible ermA incubated for 20 to 24 hrs followed by sub-culturing for 24 hrs in absence of compound
# Type: functional
readout.kind: MBC (µg/mL)

- CC[C@H]1OC(=O)[C@H](C)[C@H](OC(=O)Cc2ccccn2)[C@H](C)[C@@H](O[C@@H]2O[C@H](C)C[C@H](N(C)C)[C@H]2O)[C@@](C)(OC/C=C/c2cnc3ccccc3c2)C[C@@H](C)/C(=N\O)[C@H](C)[C@H]2OC(=O)O[C@@]21C: 64

----------
# Test system: Streptococcus pyogenes
# measurement.description: Ratio of MBC to MIC for Streptococcus pyogenes 01-968 expressing inducible ermA
# Format: functional
Ratio reference
readout.kind: Ratio

* CC[C@H]1OC(=O)[C@H](C)C(=O)[C@H](C)[C@@H](O[C@@H]2O[C@H](C)C[C@H](N(C)C)[C@H]2O)[C@](C)(OC)C[C@@H](C)/C(=N\OC/C=C/c2cnc3ccccc3c2)[C@H](C)[C@H]2OC(=O)O[C@@]21C | >8
* CC[C@H]1OC(=O)[C@@](C)(F)C(=O)[C@H](C)[C@@H](O[C@@H]2O[C@H](C)C[C@H](N(C)C)[C@H]2O)[C@](C)(OC)C[C@@H](C)/C(=N\OC/C=C/c2cncc(C(N)=O)c2)[C@H](C)[C@H]2OC(=O)O[C@@]21C | >8
* CC[C@H]1OC(=O)[C@H](C)C(=O)[C@H](C)[C@@H](O[C@@H]2O[C@H](C)C[C@H](N(C)C)[C@H]2O)[C@](C)(OC)C[C@@H](C)C(=O)[C@H](C)[C@H]2N(CCCCn3cnc(-c4cccnc4)c3)C(=O)O[C@]12C | 2 - 8
* CC[C@H]1OC(=O)[C@@](C)(F)C(=O)[C@H](C)[C@@H](O[C@@H]2O[C@H](C)C[C@H](N(C)C)[C@H]2O)[C@](C)(OC)C[C@@H](C)/C(=N\OC/C=C/c2cncc(N)c2)[C@H](C)[C@H]2OC(=O)O[C@@]21C | >8

----------
# Test system: Staphylococcus aureus
# measurement.description: Bacteriostatic activity against methicillin-resistant Staphylococcus aureus PU32 expressing inducible ermA after 20 hrs by two-fold microbroth dilution method
# Assay type: functional
# applied.conditions: PU32, 20 h
readout.kind: MIC

• CC[C@H]1OC(=O)[C@@](C)(F)[C@H](OC(=O)Cc2ccccn2)[C@H](C)[C@@H](O[C@@H]2O[C@H](C)C[C@H](N(C)C)[C@H]2O)[C@](C)(OC)C[C@@H](C)/C(=N\OC)[C@H](C)[C@H]2OC(=O)O[C@@]21C = > 256 µg/mL
• CC[C@H]1OC(=O)[C@H](C)[C@@H](O[C@H]2C[C@@](C)(OC)[C@@H](O)[C@H](C)O2)[C@H](C)[C@@H](O[C@@H]2O[C@H](C)C[C@H](N(C)C)[C@H]2O)[C@](C)(OC)C[C@@H](C)C(=O)[C@H](C)[C@@H](O)[C@]1(C)O [CLARITHROMYCIN] = 8 to 32 µg/mL
• CC[C@H]1OC(=O)[C@H](C)[C@H](OC(=O)Cc2ccccn2)[C@H](C)[C@@H](O[C@@H]2O[C@H](C)C[C@H](N(C)C)[C@H]2O)[C@](C)(OC)C[C@@H](C)/C(=N\OC)[C@H](C)[C@H]2OC(=O)O[C@@]21C = > 256 µg/mL
• CC[C@H]1OC(=O)[C@H](C)[C@H](OC(=O)c2ccccn2)[C@H](C)[C@@H](O[C@@H]2O[C@H](C)C[C@H](N(C)C)[C@H]2O)[C@](C)(OC)C[C@@H](C)/C(=N\OC)[C@H](C)[C@H]2OC(=O)O[C@@]21C = > 256 µg/mL
